TARGET_SYSTEM: T1, recombinant purified human IL-12 p70 (human, UniProt P29459 23-219)
T1 sequence 1: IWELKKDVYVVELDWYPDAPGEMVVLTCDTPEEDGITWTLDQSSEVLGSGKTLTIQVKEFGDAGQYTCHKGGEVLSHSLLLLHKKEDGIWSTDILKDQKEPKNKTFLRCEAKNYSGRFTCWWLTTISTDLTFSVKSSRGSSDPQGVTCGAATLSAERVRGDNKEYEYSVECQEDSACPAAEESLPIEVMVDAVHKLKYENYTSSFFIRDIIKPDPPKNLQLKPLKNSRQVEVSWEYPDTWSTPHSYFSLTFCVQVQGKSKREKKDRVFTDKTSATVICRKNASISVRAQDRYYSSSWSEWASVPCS
T1 sequence 2: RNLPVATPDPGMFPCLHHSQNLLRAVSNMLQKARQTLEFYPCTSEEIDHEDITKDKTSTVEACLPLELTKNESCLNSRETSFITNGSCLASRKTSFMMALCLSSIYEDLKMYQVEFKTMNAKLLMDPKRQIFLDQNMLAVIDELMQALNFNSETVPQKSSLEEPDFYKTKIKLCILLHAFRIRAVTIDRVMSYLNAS
EXPERIMENTAL_PROTOCOL: cell-based or functional assay
Reported Av. IC50 (nM) huIL-12, PHA blast assay values for the following binders.
Value expressed in nM; do not type the unit.

BINDER	QUANTITATIVE_READOUT
anti-IL-12p40 hybrid antibody 1D4.5 (antibody, human IgG1, kappa, L234A L235A, V domains shown) VH: QVTLKESGPGILQPSQTLSLTCSFSGFSLRKSVMGVSWIRQPSGKGLEWLAHIYWDDDKYYNPSLKSRLTISKDPSRNQVFLKITSVDTADAATYYCTRRGIRSAMDYWGQGTSVTVSS VL: DIVMTQSPDSLAVSLGERATINCKASQSVSNDVAWYQQKPGQPPKLLIYYASNRYTGVPDRFSGSGSGTDFTLTISSLQAEDVAVYYCQQDYNSPWTFGGGTKVEIKR	0.053
anti-IL-12p40 hybrid antibody 1A6.4 (antibody, human IgG1, kappa, L234A L235A, V domains shown, Hybrid: chimeric murine H chain paired with CDR-grafted L chain) VH: QVTLKESGPGILKPSQTLSLTCSFSGFSLSTSGMGVSWIRQPSGKGLEWLAHIWWDGDNYYNPSLKSQLTISKDTSRNQVFLRIATVDTADTATYYCARRTRVNYAMDYWGQGTSVTVSS VL: EIVMTQSPATLSVSPGERATLSCKASQSVSNDVAWYQQKPGQAPRLLIYYASNRYTGIPARFSGSGSGTEFTLTISSLQSEDFAVYYCQQDYNSPWTFGGGTKVEIKR	2.1

What does the record list as Av. IC50 (nM) huIL-12, PHA blast assay for anti-IL-12p40 hybrid antibody 1A6.3 (antibody, human IgG1, kappa, L234A L235A, V domains shown) VH: EVTLKESGPVLVKPTETLTLTCTVSGFSLSTSGMGVSWIRQPPGKALEWLAHIWWDGDNYYNPSLKSRLTISKDTSKSQVVLTMTNMDPVDTATYYCARRTRVNYAMDYWGQGTTVTVSS VL: SVVMTQTPKFLLVSAGDRVTITCKASQSVSNDVAWFQQKPGQSPKLLIYYASNRYTGVPDRFTGSGYGTDFTFTISTVQAEDLAVYFCQQDYNSPWTFGGGTKLEIKR ? 0.068
